Inhibition for assorted molecules
test system: Staphylococcus aureus; conditions: Concentration 32 ug.mL-1; ASSAY_TEST Inhibition of Bacterial Growth; detection method Absorption (OD600); MEDIA CAMHB; plate type 384well; NBS; CORNING #3640; time 18 hr
Description: Antibacterial activity against Staphylococcus aureus MRSA ATCC 43300 (CO-ADD:GP_020); MIC in CAMBH media, using NBS plates, by OD(600)
Results with a measured potency or affinity are listed apart.
# answer = value followed by unit

Some molecules with known Inhibition results, for comparison:
Inquiry: Please give the measured Inhibition for this molecule: CC(=O)O[C@H]1C[C@@]2(C)C(C[C@@H](O)C3[C@@]4(C)CC[C@@H](O)[C@@H](C)C4CC[C@@]32C)/C1=C(\CCC=C(C)C)C(=O)Oc1ccc(CCO[N+](=O)[O-])cc1 (stereo partly drawn)
Reply text: 23.19%

Inquiry: Can you look up the measured Inhibition of CC(=O)O[C@H]1C[C@@]2(C)C(C[C@@H](O)C3[C@@]4(C)CC[C@@H](OC(=O)C(N)CC(C)C)[C@@H](C)C4CC[C@@]32C)/C1=C(\CCC=C(C)C)C(=O)OCc1ccccc1 (stereo partly drawn) for me?
Reply text: -0.87%

Then this molecule:
Inquiry: For CC(=O)O[C@H]1C[C@@]2(C)C(C[C@@H](O)C3[C@@]4(C)CC[C@@H](OC(=O)c5ccccc5C(=O)Oc5ccc(CCO[N+](=O)[O-])cc5)[C@@H](C)C4CC[C@@]32C)/C1=C(\CCC=C(C)C)C(=O)OCc1ccccc1 (stereo partly drawn) , what is its reported Inhibition?
Reply text: -1.26%

----------
system: Staphylococcus aureus; conditions: Concentration 32 ug.mL-1; ASSAY_TEST Inhibition of Bacterial Growth; detection method Absorption (OD600); MEDIA CAMHB; plate type 384well; NBS; CORNING #3640; time 18 hr
Entries with a potency or affinity are not part of this list.
Decide using Inhibition: a value greater than or equal to 10% is True, a smaller one is False.

Please review the entries below; each comes with its answer.
Inquiry: Does the compound CC(=O)O[C@H]1C[C@@]2(C)C(C[C@@H](O)C3[C@@]4(C)CC[C@@H](OC(=O)c5ccccc5C(=O)OCCc5ccc(OCCO[N+](=O)[O-])cc5)[C@@H](C)C4CC[C@@]32C)/C1=C(\CCC=C(C)C)C(=O)OCc1ccccc1 (some centres not stated) have recorded Inhibition that is 10% or more?
Reply text: False

Inquiry: Check the entry CC(=O)O[C@H]1C[C@@]2(C)C(C[C@@H](O)C3[C@@]4(C)CC[C@@H](O)[C@@H](C)C4CC[C@@]32C)/C1=C(\CCC=C(C)C)C(=O)On1nnc2ccccc21 (some centres not stated) : does Inhibition equal or exceed 10%?
Reply text: True

Inquiry: Does Inhibition meet or surpass 10% for CC(=O)O[C@H]1C[C@@]2(C)C(C[C@@H](O)C3[C@@]4(C)CC[C@@H](OC(=O)CCCCCO[N+](=O)[O-])[C@@H](C)C4CC[C@@]32C)/C1=C(\CCC=C(C)C)C(=O)OCc1ccccc1 (some centres not stated) ?
Reply text: False

Inquiry: Say whether CC(=O)O[C@H]1C[C@@]2(C)C(C[C@@H](O)C3[C@@]4(C)CC[C@@H](OC(=O)C(N)C(C)C)[C@@H](C)C4CC[C@@]32C)/C1=C(\CCC=C(C)C)C(=O)OCc1ccccc1 (some centres not stated) shows Inhibition of 10% or more.
Reply text: False

Inquiry: Does the reported Inhibition for CC(=O)O[C@H]1C[C@@]2(C)C(C[C@@H](O)C3[C@@]4(C)CC[C@@H](OC(=O)CCC(=O)O)[C@@H](C)C4CC[C@@]32C)/C1=C(\CCC=C(C)C)C(=O)OCc1ccccc1 (some centres not stated) fall at or above the 10% mark?
Reply text: True

Inquiry: # bool: Inhibition of CC(=O)O[C@H]1C[C@@]2(C)C(C[C@@H](O)C3[C@@]4(C)CC[C@@H](O)[C@@H](C)C4CC[C@@]32C)/C1=C(\CCC=C(C)C)C(=O)OCc1ccccc1 (some centres not stated) >= 10%
Reply text: True

Inquiry: Hello, I need to know if CC(=O)O[C@H]1C[C@@]2(C)C(C[C@@H](O)C3[C@@]4(C)CC[C@@H](OC(=O)CO[N+](=O)[O-])[C@@H](C)C4CC[C@@]32C)/C1=C(\CCC=C(C)C)C(=O)OCc1ccccc1 (some centres not stated) has measured Inhibition not below 10%. Thanks!
Reply text: False

Inquiry: I'd appreciate it if you could say whether CC(=O)O[C@H]1C[C@@]2(C)C(C[C@@H](O)C3[C@@]4(C)CC[C@@H](OC(=O)CCCCO[N+](=O)[O-])[C@@H](C)C4CC[C@@]32C)/C1=C(\CCC=C(C)C)C(=O)OCc1ccccc1 (some centres not stated) has Inhibition at least equal to 10%.
Reply text: False

Inquiry: Answer whether Inhibition of CC(=O)O[C@H]1C[C@@]2(C)C(C[C@@H](O)C3[C@@]4(C)CC[C@@H](OC(=O)c5ccccc5C(=O)Nc5cccc(N)c5)[C@@H](C)C4CC[C@@]32C)/C1=C(\CCC=C(C)C)C(=O)OCc1ccccc1 (some centres not stated) is greater than or equal to 10%.
Reply text: False

Inquiry: hey, is Inhibition for this one >= 10%? CC(=O)O[C@H]1C[C@@]2(C)C(CC(=O)C3[C@@]4(C)CCC(=O)[C@@H](C)C4CC[C@@]32C)/C1=C(\CCC=C(C)C)C(=O)OCc1ccccc1 (some centres not stated)
Reply text: True

Further cases:
Inquiry: Entry CC(=O)O[C@H]1C[C@@]2(C)C(C[C@@H](O)C3[C@@]4(C)CC[C@@H](OC(=O)C(C)N)[C@@H](C)C4CC[C@@]32C)/C1=C(\CCC=C(C)C)C(=O)OCc1ccccc1 (some centres not stated) : is its Inhibition no less than 10%?
Reply text: True
